biological target: Vasopressin V2 receptor (Rattus norvegicus); assay: Inhibition of [3H]arginine vasopressin binding to AVP-V2 site in rat kidney medulla.; type: tissue-based
Sequence (Q00788 whole entry): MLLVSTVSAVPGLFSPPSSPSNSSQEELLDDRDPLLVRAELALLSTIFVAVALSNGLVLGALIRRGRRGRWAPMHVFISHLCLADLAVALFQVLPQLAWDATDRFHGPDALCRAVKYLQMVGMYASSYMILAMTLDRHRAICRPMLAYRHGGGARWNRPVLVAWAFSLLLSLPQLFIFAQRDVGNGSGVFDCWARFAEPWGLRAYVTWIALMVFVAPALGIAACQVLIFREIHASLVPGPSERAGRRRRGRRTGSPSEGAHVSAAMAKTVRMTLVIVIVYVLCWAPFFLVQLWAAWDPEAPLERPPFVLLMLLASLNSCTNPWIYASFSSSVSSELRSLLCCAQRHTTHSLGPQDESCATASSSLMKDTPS
pIC50: −log10 of the molar value. Where a SMILES comes first, the peptide text is derived from it. [ ]: non-standard residue; d: D form. d1Nal = N[C@H](Cc1cccc2ccccc12)C(=O)O; dNMeF = CN[C@H](Cc1ccccc1)C(=O)O; Pip = O=C(O)[C@@H]1CCCCN1; dPip = O=C(O)[C@H]1CCCCN1
The molecules listed here are annotated with their pIC50.
experimentalEndpoint: pIC50

- molecule: "CC(C)C[C@@H]1NC(=O)[C@@H](Cc2c[nH]c3ccccc23)NC(=O)[C@@H]2CCCN2C(=O)[C@@H](Cc2c[nH]cn2)NC(=O)[C@@H]2CCCCN2C(=O)[C@H]2CCCCN2C1=O (cyclo(L[dPip][Pip][dH]P[dW]))"
  testedOn: "Vasopressin V2 receptor (Rattus norvegicus)"
  testResult: 4.96
- molecule: "CC[C@H](C)[C@@H]1NC(=O)[C@@H](Cc2ccccc2)NC(=O)[C@@H]2CCCN2C(=O)[C@@H](Cc2ccccc2)N(C)C(=O)[C@@H]2CCCCN2C(=O)[C@H]2CCCCN2C1=O (cyclo(I[dPip][Pip][dNMeF]P[dF]))"
  testedOn: "Vasopressin V2 receptor (Rattus norvegicus)"
  testResult: 5.42
- molecule: "CC[C@H](C)[C@@H]1NC(=O)[C@@H](Cc2cccc3ccccc23)NC(=O)[C@@H]2CCCN2C(=O)[C@@H](Cc2cnc[nH]2)NC(=O)[C@@H]2CCCCN2C(=O)[C@H]2CCCCN2C1=O (cyclo(I[dPip][Pip][dH]P[d1Nal]))"
  testedOn: "Vasopressin V2 receptor (Rattus norvegicus)"
  testResult: 6.14
